Numbers sourced from PubChem BioAssay AID248.

- Test system: L1210 leukemia ip in BDF1 mice, survival T/C
- PROTOCOL_DETAILS: NCI In Vivo Anticancer Drug Screen. Data for tumor model L1210 Leukemia (intraperitoneal) in B6D2F1 (BDF1) mice
- CONDITION_PARAMETERS: endpoint: mean survival time; dose: 100.0 mg/kg/injection; schedule: Q01DX009 (ip); vehicle: Klucel (hydroxypropylcellulose) (HPC); higher = longer survival
Toxic doses and inconclusive results are not listed.
Recorded T/C by entry
METRIC: T/C

1) CCc1csc(=S)[nH]1: 93 % of control
2) Nc1ccc(NS(=O)(=O)c2ccccc2)nc1: 102 % of control
3) O=C1c2ccccc2-c2ncccc21: 103 % of control
4) CC12C=CC3(CCC4C(C)(C)C(O)C(=O)CC4(C)C3CC1=O)C2 (stereo unspecified): 105 % of control
5) CNC(=O)Oc1ccccc1C(Cl)(Cl)Cl: 101 % of control
6) Cc1ccc([N+](=O)[O-])cc1NC(=O)OCc1ccco1: 103 % of control

---

- System: L1210 leukemia ip in BDF1 mice, survival T/C
- PROTOCOL_DETAILS: NCI In Vivo Anticancer Drug Screen. Data for tumor model L1210 Leukemia (intraperitoneal) in B6D2F1 (BDF1) mice
- CONDITION_PARAMETERS: endpoint: mean survival time; dose: 200.0 mg/kg/injection; schedule: Q01DX009 (ip); vehicle: other; higher = longer survival
Inconclusive results and toxic doses are left out.
METRIC: T/C

1) Cc1ccc(CNc2ccccc2)cc1: 93 % of control
2) O=C(O)C1CCC=CCC1: 98 % of control
3) CCCCNC(=O)C(=O)NCCCC: 94 % of control
4) COc1ccc2c(OC)cccc2c1: 91 % of control
5) Cn1c(CC(O)(C(F)(F)F)C(F)(F)F)cc2ccccc21: 95 % of control

---

Recorded T/C by entry
- Tested on: L1210 leukemia ip in BDF1 mice, survival T/C
- PROTOCOL_DETAILS: NCI In Vivo Anticancer Drug Screen. Data for tumor model L1210 Leukemia (intraperitoneal) in B6D2F1 (BDF1) mice
- CONDITION_PARAMETERS: endpoint: mean survival time; dose: 400.0 mg/kg/injection; schedule: Q04DX003 (ip); vehicle: Klucel (hydroxypropylcellulose) (HPC); higher = longer survival
Toxic doses and inconclusive results are not listed.
METRIC: T/C

1) CC(C)=CCC(=O)NC(=O)NS(=O)(=O)c1ccc(C)cc1: 101 % of control
2) O=c1[nH]c2cc(F)ccc2o1: 111 % of control
3) COc1cc([N+](=O)[O-])ccc1C#N: 96 % of control
4) O=C(NC(=S)Nc1cccc(Cl)c1)c1cccc(Br)c1: 96 % of control
5) COC(=O)/C=C/C(=O)OC: 112 % of control
6) Nc1ccc(NS(=O)(=O)c2ccccc2)nc1: 105 % of control
7) CCOC(=O)c1scnc1C: 95 % of control
8) CC(C)(C)OC(=O)NNC(=O)C(CSC(c1ccccc1)c1ccccc1)N1C(=O)c2ccccc2C1=O (stereo not drawn): 99 % of control
9) CCN(CC)C(=O)OCCN1C(=O)C2C3CCC(O3)C2C1=O (stereo not drawn): 93 % of control
10) CN(C)c1ccc(C=Nc2cccc(Cl)c2)cc1: 91 % of control
11) O=C(Nc1ccccc1Cl)Oc1ccc(-c2ccccc2)cc1Br: 102 % of control
12) CC1=CCc2c(NS(=O)(=O)N(C)C)ccc(NS(=O)(=O)N(C)C)c2C1: 91 % of control
13) c1ccc(-c2cccc3c2N=C2C3=Nc3c2cccc3-c2ccccc2)cc1: 93 % of control
14) CN(C)N=Nc1ccc(C(=O)N/N=C/c2ccc(Br)cc2)cc1: 95 % of control
15) O=C(c1ccncc1)n1cc2c(n1)CCCC2: 95 % of control
16) CCC(C)C(NC(=O)C(CC(C)C)N(C)C)C(=O)N1CCC2Oc3ccc(cc3)/C=C\NC(=O)C(Cc3ccccc3)NC(=O)C21 (stereo not drawn): 94 % of control
17) O=P1(c2ccccc2)CCc2[nH]c3ccc(Cl)cc3c2C1 (stereo not drawn): 112 % of control
18) O=Cc1c[nH]c2ccccc12: 98 % of control
19) CN=C(C)c1ccc(N(C)C)cc1: 97 % of control
20) CC12CCC(C/C1=C\C#N)C(C)(C)O2 (stereo not drawn): 101 % of control
21) CCn1cc(C(=O)O)c(=O)c2ccc(-c3ccncc3)cc21: 89 % of control
22) CC12C(C#N)=C(c3ccccc3)C=C(c3ccccc3)C1=C(c1ccccc1)c1ccccc12 (stereo not drawn): 94 % of control
23) CN(C)C(=O)c1ccc(O)cc1: 97 % of control
24) CN=NC(OC(C)=O)(c1ccccc1)c1ccccc1: 101 % of control
25) CSC1CCCC(=O)C1 (stereo not drawn): 105 % of control
26) CC(C)(c1cc(Br)c(O)c(Br)c1)c1cc(Br)c(O)c(Br)c1: 103 % of control
27) CCCCC(CC)CCC(=O)CC(C)C (stereo not drawn): 98 % of control
28) Cc1ccc([N+](=O)[O-])cc1NC(=O)Sc1ccc(C(C)(C)C)cc1: 98 % of control
29) CC(C)(C)N1OC1c1cccc(Cl)c1 (stereo not drawn): 101 % of control
30) CC12C=CC3(CCC4C(C)(C)C(O)C(=O)CC4(C)C3CC1=O)C2 (stereo not drawn): 98 % of control
31) ClC1=C(Cl)C2(Cl)C(C1Cl)C1(Cl)C(Cl)=C(Cl)C2(Cl)C1Cl (stereo not drawn): 93 % of control
32) Cc1cc(=O)[nH]n1-c1ccc(N)cc1: 103 % of control
33) CC(C)N1CCC(=O)NC1=O: 91 % of control
34) CC(=O)C1CCC2C3CC=C4CC(O)C=CC4(C)C3CCC12C (stereo not drawn): 92 % of control
35) c1ccc(C2=NC(c3ccccc3)(C3(c4ccccc4)SCCCS3)CO2)cc1 (stereo not drawn): 102 % of control
36) c1ccc(OP(Oc2ccccc2)c2ccccc2)cc1: 98 % of control
37) O=C1c2sccc2-c2cccc3cccc1c23 (tested in a mixture with another compound): 106 % of control
38) CC(=O)Nc1nnc(/C=C/c2ccc([N+](=O)[O-])o2)s1: 100 % of control
